- Test system: CYP1A
- Measurement Protocol: Incubation with inhibitors: PH-O-deethylation in porcine hepatic microsomes
- Format: in vitro ADME, conventional pig
- Study Conditions: pig, probe phenacetin 20 µM (PH-O-deethylation); porcine hepatic microsomes; read-out: Inhibition of PH-O-deethylation by inhibitor
Property: inhibition at 0.1 µM (%)
The reply should contain only the number, in %.

Hey, CYP1A data for `O=c1cc(-c2ccccc2)oc2c1ccc1ccccc12` : inhibition at 0.1 µM came out at 24

###

- Tested on: porcine intestinal CYP450 enzymes
- Measurement Protocol: in vitro
- Study Conditions: pig, Jejunum Km, jejunal microsomes, pool of 16 pigs, n=3; mean (SD)
Property: Km at 10 min (µM)
The reply should contain only the number, in µM.

The reported Km at 10 min of the compound Cc1ncc2n1-c1ccc(Cl)cc1C(c1ccccc1F)=NC2 [MDZ, Midazolam] was 23.1

###

- System: porcine intestinal CYP450 enzymes
- Measurement Protocol: in vitro
- Study Conditions: pig, ileal microsomes
Property: Km at 10 min (µM)
The reply should contain only the number, in µM.

The reported Km at 10 min of the molecule CCOc1ccc(NC(C)=O)cc1 [PH, Phenacetin] was 189

###

- Tested on: CYP2A
- Measurement Protocol: Incubation with inhibitors: CM-hydroxylation in porcine hepatic microsomes
- Format: in vitro ADME, conventional pig
- Study Conditions: pig, porcine hepatic microsomes, probe coumarin 1 µM (CM-hydroxylation); inhibitor 1 µM; read-out: Maximal inhibition of other reactions (CM)
Property: inhibition at 1 µM (%)
The reply should contain only the number, in %.

The reported inhibition at 1 µM of the compound `O=c1cc(-c2ccccc2)oc2c1ccc1ccccc12` was 4

###

- System: porcine intestinal CYP450 enzymes
- Measurement Protocol: in vitro
- Study Conditions: pig, Ileum Km, ileal microsomes, pool of 16 pigs, n=3; mean (SD)
Property: Km at 10 min (µM)
The reply should contain only the number, in µM.

The reported Km at 10 min of the compound `Cc1ncc2n1-c1ccc(Cl)cc1C(c1ccccc1F)=NC2` was 16.2

###

- Test system: porcine intestinal CYP450 enzymes
- Measurement Protocol: in vitro
- Study Conditions: pig, duodenal microsomes
Property: Km at 10 min (µM)
The reply should contain only the number, in µM.

The reported Km at 10 min of the compound CCCCNC(=O)NS(=O)(=O)c1ccc(C)cc1 [TB, tolbutamide] was 1410

The reported Km at 10 min of the compound CCOc1ccc(NC(C)=O)cc1 [PH, Phenacetin] was 144

###

- Test system: porcine intestinal CYP450 enzymes
- Measurement Protocol: in vitro
- Study Conditions: pig, jejunal microsomes
Property: Km at 10 min (µM)
The reply should contain only the number, in µM.

The reported Km at 10 min of the compound `CCOc1ccc(NC(C)=O)cc1` was 182

The reported numbers originate from paper PMC6592956.
